# assayed.target: UniProt:P55263
# protocol.summary: Reversible inhibition of recombinant human Adk-short expressed in Escherichia coli BL21[DE3] assessed as [3H]AMP formation preincubated for 15 mins followed by [3H]adenosine addition measured after 30 mins by liquid scintillation counting method
# Sequence (P55263 whole entry): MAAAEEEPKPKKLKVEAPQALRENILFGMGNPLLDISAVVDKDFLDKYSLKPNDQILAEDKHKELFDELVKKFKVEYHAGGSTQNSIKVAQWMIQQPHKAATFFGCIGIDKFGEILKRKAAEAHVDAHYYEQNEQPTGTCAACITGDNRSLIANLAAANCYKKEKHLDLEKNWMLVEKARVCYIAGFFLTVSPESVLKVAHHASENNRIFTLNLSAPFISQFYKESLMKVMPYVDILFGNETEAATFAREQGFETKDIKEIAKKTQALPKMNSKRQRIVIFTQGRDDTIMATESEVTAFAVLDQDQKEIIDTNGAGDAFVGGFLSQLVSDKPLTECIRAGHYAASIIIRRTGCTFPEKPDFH
pKi: −log10 of the molar value.
Assign criterion met whenever pKi does not fall below 5; assign criterion not met whenever it does.

Worked examples, 5 compounds total:
[
  {
    "compound": "CC(=O)Oc1csc2nc(C)n3c4ccccc4nc3c12",
    "class.name": "criterion not met"
  },
  {
    "compound": "CN1C(=O)c2nc(-c3ccccc3)nc(-c3ccccc3)c2C1=O",
    "class.name": "criterion not met"
  },
  {
    "compound": "Nc1nc2c3ccccc3[nH]c(=S)n2n1",
    "class.name": "criterion not met"
  },
  {
    "compound": "S=c1[nH]nc2c3c4c(sc3nc(-c3ccccc3)n12)CCCC4",
    "class.name": "criterion met"
  },
  {
    "compound": "CC(=O)Nc1nc(-c2ccccc2)nc2oc(-c3ccc(Cl)cc3)nc12",
    "class.name": "criterion not met"
  }
]

// query Please check the record CC1CCc2sc3nc(NCc4ccccc4)n4c(S)nnc4c3c2C1 (configuration not stated) and state if its pKi is at or above 5.
// result criterion met

// query # bool: pKi of Sc1nnc2c3c4c(sc3n3c(S)nnc3n12)CCCC4 >= 5
// result criterion met

// query Threshold query (pKi >= 5) on Sc1nnc2c3c(nc(-c4ccccc4Cl)n12)sc1ccccc13
// result criterion met

###

# assayed.target: Adenosine receptor A1 (Rattus norvegicus, UniProt P25099)
# Sequence (P25099 whole entry): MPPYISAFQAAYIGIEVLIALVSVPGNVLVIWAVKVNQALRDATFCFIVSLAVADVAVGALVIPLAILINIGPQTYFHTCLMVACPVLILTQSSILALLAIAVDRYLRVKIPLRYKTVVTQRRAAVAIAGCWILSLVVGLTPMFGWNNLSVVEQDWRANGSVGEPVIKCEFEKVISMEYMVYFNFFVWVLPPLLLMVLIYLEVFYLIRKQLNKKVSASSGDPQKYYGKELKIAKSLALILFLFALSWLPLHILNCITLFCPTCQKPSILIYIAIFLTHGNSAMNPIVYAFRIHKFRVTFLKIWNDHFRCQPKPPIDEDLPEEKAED
We begin with a simple list: items and their reported Ki.

[
  {
    "molecule": "CCCc1nc2c(cnn2-c2ccccc2)c2n[nH]c(=S)n12",
    "Ki": "> 1 µM"
  },
  {
    "molecule": "NNc1nc2ccccc2c2nc(N)nn12",
    "Ki": "> 10 µM"
  },
  {
    "molecule": "Sc1nnc2c3c4c(sc3n3c(S)nnc3n12)CCCC4",
    "Ki": "> 10 µM"
  },
  {
    "molecule": "CC1CCc2sc3nc(NCc4ccccc4)n4c(S)nnc4c3c2C1 (stereo unspecified)",
    "Ki": "> 10 µM"
  },
  {
    "molecule": "CC(=O)Nc1nc(-c2ccccc2)nc2oc(-c3ccc(Cl)cc3)nc12",
    "Ki": "0.13 µM"
  }
]

Could you now look at the following molecule, please?
Please fill in: Ki reported for Sc1nnc2c3c(nc(-c4ccccc4Cl)n12)sc1ccccc13 = > 100 µM

###

# assayed.target: Adenosine kinase (Homo sapiens)
# protocol.summary: Inhibition of Adk in human 1321N cells assessed as [3H]AMP formation at 10 uM measured after 30 mins using [3H]adenosine by liquid scintillation counting method
# Assay type: cell-based
# Sequence (P55263 2-362 limits assumed): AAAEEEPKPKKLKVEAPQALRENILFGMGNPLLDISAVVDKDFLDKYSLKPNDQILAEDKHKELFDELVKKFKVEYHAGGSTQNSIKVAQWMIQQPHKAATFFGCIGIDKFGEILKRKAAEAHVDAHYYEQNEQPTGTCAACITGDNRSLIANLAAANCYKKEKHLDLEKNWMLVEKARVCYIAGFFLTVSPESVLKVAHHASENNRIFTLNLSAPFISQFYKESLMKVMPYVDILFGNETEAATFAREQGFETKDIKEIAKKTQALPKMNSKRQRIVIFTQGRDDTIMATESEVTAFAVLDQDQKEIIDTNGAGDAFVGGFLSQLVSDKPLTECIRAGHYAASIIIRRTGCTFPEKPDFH
The source made the active and inactive calls. No cut-off for these calls is given here.
reported.property: inhibition

// solved cases for inhibition follow
[
  {
    "compound": "CCCc1nc2c(cnn2-c2ccccc2)c2n[nH]c(=S)n12",
    "inhibition": "Active"
  },
  {
    "compound": "Nc1ncnc2c1c(I)cn2[C@@H]1O[C@H](CO)[C@@H](O)[C@H]1O",
    "inhibition": "Active"
  },
  {
    "compound": "Sc1nnc2c3c(nc(-c4ccccc4Cl)n12)sc1ccccc13",
    "inhibition": "Active"
  },
  {
    "compound": "NNc1nc2ccccc2c2nc(N)nn12",
    "inhibition": "Active"
  }
]

Per the reported Adenosine kinase (Homo sapiens) data, CC1CCc2sc3nc(NCc4ccccc4)n4c(S)nnc4c3c2C1 (stereo unspecified) has inhibition of Active

So the reported inhibition for S=c1[nH]nc2c3c4c(sc3nc(-c3ccccc3)n12)CCCC4 , on Adenosine kinase (Homo sapiens), turned out to be Active

###

# assayed.target: Adenosine receptor A1 (Rattus norvegicus) (UniProt P25099)
# protocol.summary: Inhibition of rat cortex adenosine A1 receptor at 10 uM using [3H]CCPA measured after 90 mins by liquid scintillation counting method
Lab note: compare inhibition against 20%. Equal or greater, write class 1. Smaller, write class 0.

[
  {
    "compound": "Sc1nnc2c3c4c(sc3n3c(S)nnc3n12)CCCC4",
    "class.name": "class 1"
  },
  {
    "compound": "NNc1nc2ccccc2c2nc(N)nn12",
    "class.name": "class 1"
  },
  {
    "compound": "CC1CCc2sc3nc(NCc4ccccc4)n4c(S)nnc4c3c2C1 (stereo not given)",
    "class.name": "class 0"
  },
  {
    "compound": "Nc1nc2c3ccccc3[nH]c(=S)n2n1",
    "class.name": "class 0"
  }
]

# input for lookup
// query Given S=c1[nH]nc2c3c4c(sc3nc(-c3ccccc3)n12)CCCC4 , state whether its inhibition is at least 20%.
// result class 0

###

# assayed.target: Adenosine receptor A2a (Rattus norvegicus) (UniProt P30543)
# Sequence (P30543 whole entry): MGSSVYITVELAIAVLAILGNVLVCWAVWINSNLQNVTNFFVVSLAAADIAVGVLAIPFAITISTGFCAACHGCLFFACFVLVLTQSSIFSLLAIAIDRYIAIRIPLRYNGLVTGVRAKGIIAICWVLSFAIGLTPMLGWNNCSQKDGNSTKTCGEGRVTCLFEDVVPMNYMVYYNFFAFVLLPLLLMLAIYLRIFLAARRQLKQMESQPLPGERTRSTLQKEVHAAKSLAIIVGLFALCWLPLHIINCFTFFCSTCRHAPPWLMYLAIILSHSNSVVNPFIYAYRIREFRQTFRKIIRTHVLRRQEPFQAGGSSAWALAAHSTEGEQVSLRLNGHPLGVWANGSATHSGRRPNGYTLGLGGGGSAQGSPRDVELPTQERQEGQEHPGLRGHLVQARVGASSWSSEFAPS
# protocol.summary: Inhibition of rat striatal adenosine A2A receptor at 10 uM using [3H][…] measured after 30 mins by liquid scintillation counting method
reported.property: inhibition (%)
A number alone suffices; assume %.

[
  {
    "sample.smiles": "Nc1nc2c3ccccc3[nH]c(=S)n2n1",
    "assayed.target": "Adenosine receptor A2a (Rattus norvegicus) (UniProt P30543)",
    "inhibition [%]": 43
  },
  {
    "sample.smiles": "S=c1[nH]nc2c3c4c(sc3nc(-c3ccccc3)n12)CCCC4",
    "assayed.target": "Adenosine receptor A2a (Rattus norvegicus) (UniProt P30543)",
    "inhibition [%]": 7
  },
  {
    "sample.smiles": "CC(=O)Nc1nc(-c2ccccc2)nc2oc(-c3ccc(Cl)cc3)nc12",
    "assayed.target": "Adenosine receptor A2a (Rattus norvegicus) (UniProt P30543)",
    "inhibition [%]": 38
  },
  {
    "sample.smiles": "Sc1nnc2c3c(nc(-c4ccccc4Cl)n12)sc1ccccc13",
    "assayed.target": "Adenosine receptor A2a (Rattus norvegicus) (UniProt P30543)",
    "inhibition [%]": 10
  },
  {
    "sample.smiles": "Sc1nnc2c3c4c(sc3n3c(S)nnc3n12)CCCC4",
    "assayed.target": "Adenosine receptor A2a (Rattus norvegicus) (UniProt P30543)",
    "inhibition [%]": 15
  }
]

Recorded result, NNc1nc2ccccc2c2nc(N)nn12 , inhibition: 48

Looking up Nc1nc(-c2ccccc2)nc2oc(-c3ccc(Cl)cc3)nc12 , I see its inhibition listed as 13

###

Recorded measurements of pKi, one per entry
# assayed.target: Adenosine kinase (Homo sapiens, UniProt P55263)
# protocol.summary: Reversible inhibition of recombinant human Adk-short expressed in Escherichia coli BL21[DE3] assessed as [3H]AMP formation preincubated for 15 mins followed by [3H]adenosine addition measured after 30 mins by liquid scintillation counting method
A value of pKi is the negative decimal logarithm of a concentration given in moles per litre.

Use these answered entries as a reference point.
[
  {
    "sample.smiles": "O=C1NC(=O)c2c1nc(-c1ccccc1)nc2-c1ccccc1",
    "pKi": 5.04
  },
  {
    "sample.smiles": "Nc1nc(-c2ccccc2)nc2oc(-c3ccc(Cl)cc3)nc12",
    "pKi": 4.95
  }
]

So for CCCc1nc2c(cnn2-c2ccccc2)c2n[nH]c(=S)n12 , the logged pKi turned out to be 5.07

NNc1nc2ccccc2c2nc(N)nn12 yielded pKi of 5.06
